- PROTOCOL DESCRIPTION: Inhibition of hedgehog signaling pathway in mouse Ptch+/- p53-/- medulloblastoma cells assessed as inhibition of receptor-mediated Gli1 transcriptional activity at antiproliferative IC90 concentration after 24 hrs by RT-PCR analysis relative to control
MEASURED PROPERTY: fold change (FC)

CCCC(C)n1ncn(-c2ccc(N3CCN(c4ccc(OC[C@@H]5CO[C@@](Cn6cncn6)(c6ccc(Cl)cc6Cl)O5)cc4)CC3)cc2)c1=O (mixture of isomers) | < 0.15
CCCCn1ncn(-c2ccc(N3CCN(c4ccc(OC[C@@H]5CO[C@@](Cn6cncn6)(c6ccc(Cl)cc6Cl)O5)cc4)CC3)cc2)c1=O | > 0.45
O=c1n(-c2ccc(N3CCN(c4ccc(OC[C@@H]5CO[C@@](Cn6cncn6)(c6ccc(Cl)cc6Cl)O5)cc4)CC3)cc2)cnn1C1CCCCC1 | > 0.45
[N-]=[N+]=NCCCCCCn1ncn(-c2ccc(N3CCN(c4ccc(OC[C@@H]5CO[C@@](Cn6cncn6)(c6ccc(Cl)cc6Cl)O5)cc4)CC3)cc2)c1=O | 0.16
CC/C=C/CCn1ncn(-c2ccc(N3CCN(c4ccc(OC[C@@H]5CO[C@@](Cn6cncn6)(c6ccc(Cl)cc6Cl)O5)cc4)CC3)cc2)c1=O | < 0.15
CCCn1ncn(-c2ccc(N3CCN(c4ccc(OC[C@@H]5CO[C@@](Cn6cncn6)(c6ccc(Cl)cc6Cl)O5)cc4)CC3)cc2)c1=O | < 0.15
CC(C)Cn1ncn(-c2ccc(N3CCN(c4ccc(OC[C@@H]5CO[C@@](Cn6cncn6)(c6ccc(Cl)cc6Cl)O5)cc4)CC3)cc2)c1=O | > 0.45
CC(C)n1ncn(-c2ccc(N3CCN(c4ccc(OC[C@@H]5CO[C@@](Cn6cncn6)(c6ccc(Cl)cc6Cl)O5)cc4)CC3)cc2)c1=O | > 0.45
CCn1ncn(-c2ccc(N3CCN(c4ccc(OC[C@@H]5CO[C@@](Cn6cncn6)(c6ccc(Cl)cc6Cl)O5)cc4)CC3)cc2)c1=O | > 0.45
CCC1(Cn2ncn(-c3ccc(N4CCN(c5ccc(OC[C@@H]6CO[C@@](Cn7cncn7)(c7ccc(Cl)cc7Cl)O6)cc5)CC4)cc3)c2=O)COC1 | 0.16
CCCCCCCCn1ncn(-c2ccc(N3CCN(c4ccc(OC[C@@H]5CO[C@@](Cn6cncn6)(c6ccc(Cl)cc6Cl)O5)cc4)CC3)cc2)c1=O | < 0.15
CCC(CC)n1ncn(-c2ccc(N3CCN(c4ccc(OC[C@@H]5CO[C@@](Cn6cncn6)(c6ccc(Cl)cc6Cl)O5)cc4)CC3)cc2)c1=O | < 0.15

###

- PROTOCOL DESCRIPTION: Ratio of itraconazole IC50 to compound IC50 for antiproliferative activity against mouse Ptch+/- p53-/- medulloblastoma cells isolated from allografts in nude Harlan mouse after 96 hrs
- Format: functional, Medulloblastoma cell
We begin with a simple list: items and their reported Ratio IC50.
MEASURED PROPERTY: Ratio IC50

CC(C)n1ncn(-c2ccc(N3CCN(c4ccc(OC[C@@H]5CO[C@@](Cn6cncn6)(c6ccc(Cl)cc6Cl)O5)cc4)CC3)cc2)c1=O | 1.06
CCCCCn1ncn(-c2ccc(N3CCN(c4ccc(OC[C@@H]5CO[C@@](Cn6cncn6)(c6ccc(Cl)cc6Cl)O5)cc4)CC3)cc2)c1=O | 0.66
CC(C)Cn1ncn(-c2ccc(N3CCN(c4ccc(OC[C@@H]5CO[C@@](Cn6cncn6)(c6ccc(Cl)cc6Cl)O5)cc4)CC3)cc2)c1=O | 0.86
C#CCCCn1ncn(-c2ccc(N3CCN(c4ccc(OC[C@H]5CO[C@](Cn6cncn6)(c6ccc(Cl)cc6Cl)O5)cc4)CC3)cc2)c1=O | 0.71

###

- TARGET OR TEST SYSTEM: Vascular endothelial growth factor receptor 2 (Homo sapiens)
- PROTOCOL DESCRIPTION: Inhibition of VEGFR2 glycosylation in human HUVEC cells at 2 uM after 24 hrs by Western blot analysis
- Type: cell-based
Calls of active or inactive are those of the source. The calls are words filed in the database; no cut-off is given here.
Outcome codes: active, inactive

CC/C=C/CCn1ncn(-c2ccc(N3CCN(c4ccc(OC[C@@H]5CO[C@@](Cn6cncn6)(c6ccc(Cl)cc6Cl)O5)cc4)CC3)cc2)c1=O | inactive
CCCCn1ncn(-c2ccc(N3CCN(c4ccc(OC[C@@H]5CO[C@@](Cn6cncn6)(c6ccc(Cl)cc6Cl)O5)cc4)CC3)cc2)c1=O | inactive
CC[C@H](C)n1ncn(-c2ccc(N3CCN(c4ccc(OC[C@@H]5CO[C@@](Cn6cncn6)(c6ccc(Cl)cc6Cl)O5)cc4)CC3)cc2)c1=O | active
CCC1(Cn2ncn(-c3ccc(N4CCN(c5ccc(OC[C@@H]6CO[C@@](Cn7cncn7)(c7ccc(Cl)cc7Cl)O6)cc5)CC4)cc3)c2=O)COC1 | active
CC[C@@H](C)n1ncn(-c2ccc(N3CCN(c4ccc(OC[C@H]5CO[C@](Cn6cncn6)(c6ccc(Cl)cc6Cl)O5)cc4)CC3)cc2)c1=O | active
CC[C@H](C)n1ncn(-c2ccc(N3CCN(c4ccc(OC[C@H]5CO[C@@](Cn6cncn6)(c6ccc(Cl)cc6Cl)O5)cc4)CC3)cc2)c1=O | active
CC(C)CCn1ncn(-c2ccc(N3CCN(c4ccc(OC[C@@H]5CO[C@@](Cn6cncn6)(c6ccc(Cl)cc6Cl)O5)cc4)CC3)cc2)c1=O | active

###

- PROTOCOL DESCRIPTION: Ratio of itraconazole IC50 to compound IC50 for antiproliferative activity against mouse Ptch+/- p53-/- medulloblastoma cells isolated from allografts in nude Harlan mouse after 96 hrs
- Format: functional, Medulloblastoma cell
We begin with a simple list: items and their reported Ratio IC50.
MEASURED PROPERTY: Ratio IC50

CCC1(Cn2ncn(-c3ccc(N4CCN(c5ccc(OC[C@@H]6CO[C@@](Cn7cncn7)(c7ccc(Cl)cc7Cl)O6)cc5)CC4)cc3)c2=O)COC1 | 0.74
CC1(CCCCCCCn2ncn(-c3ccc(N4CCN(c5ccc(OC[C@@H]6CO[C@@](Cn7cncn7)(c7ccc(Cl)cc7Cl)O6)cc5)CC4)cc3)c2=O)N=N1 | 1.18
CCCC(C)n1ncn(-c2ccc(N3CCN(c4ccc(OC[C@@H]5CO[C@@](Cn6cncn6)(c6ccc(Cl)cc6Cl)O5)cc4)CC3)cc2)c1=O (mixture of isomers) | 0.38
O=C(c1ccccc1)c1ccc(OCCCCCCn2ncn(-c3ccc(N4CCN(c5ccc(OC[C@@H]6CO[C@@](Cn7cncn7)(c7ccc(Cl)cc7Cl)O6)cc5)CC4)cc3)c2=O)cc1 | 0.8
CCCCCCCCn1ncn(-c2ccc(N3CCN(c4ccc(OC[C@@H]5CO[C@@](Cn6cncn6)(c6ccc(Cl)cc6Cl)O5)cc4)CC3)cc2)c1=O | 0.67
CCCn1ncn(-c2ccc(N3CCN(c4ccc(OC[C@@H]5CO[C@@](Cn6cncn6)(c6ccc(Cl)cc6Cl)O5)cc4)CC3)cc2)c1=O | 1.01
CCCCn1ncn(-c2ccc(N3CCN(c4ccc(OC[C@@H]5CO[C@@](Cn6cncn6)(c6ccc(Cl)cc6Cl)O5)cc4)CC3)cc2)c1=O | 0.7
CC[C@@H](C)n1ncn(-c2ccc(N3CCN(c4ccc(OC[C@@H]5CO[C@](Cn6cncn6)(c6ccc(Cl)cc6Cl)O5)cc4)CC3)cc2)c1=O | 2.3
CC1(CCn2ncn(-c3ccc(N4CCN(c5ccc(OC[C@@H]6CO[C@@](Cn7cncn7)(c7ccc(Cl)cc7Cl)O6)cc5)CC4)cc3)c2=O)N=N1 | 1.32
CCC#CCCn1ncn(-c2ccc(N3CCN(c4ccc(OC[C@@H]5CO[C@@](Cn6cncn6)(c6ccc(Cl)cc6Cl)O5)cc4)CC3)cc2)c1=O | 1.07
CCC(C)n1ncn(-c2ccc(N3CCN(c4ccc(OCC5COC(Cn6cncn6)(c6ccc(Cl)cc6Cl)O5)cc4)CC3)cc2)c1=O (stereo unspecified) [ITRACONAZOLE] | 1
